The reported measurements were obtained from patent US4474764A.

Parameter IC50, tested on enkephalinase (Rattus norvegicus), listed per item.
Sequence (P07861 whole entry): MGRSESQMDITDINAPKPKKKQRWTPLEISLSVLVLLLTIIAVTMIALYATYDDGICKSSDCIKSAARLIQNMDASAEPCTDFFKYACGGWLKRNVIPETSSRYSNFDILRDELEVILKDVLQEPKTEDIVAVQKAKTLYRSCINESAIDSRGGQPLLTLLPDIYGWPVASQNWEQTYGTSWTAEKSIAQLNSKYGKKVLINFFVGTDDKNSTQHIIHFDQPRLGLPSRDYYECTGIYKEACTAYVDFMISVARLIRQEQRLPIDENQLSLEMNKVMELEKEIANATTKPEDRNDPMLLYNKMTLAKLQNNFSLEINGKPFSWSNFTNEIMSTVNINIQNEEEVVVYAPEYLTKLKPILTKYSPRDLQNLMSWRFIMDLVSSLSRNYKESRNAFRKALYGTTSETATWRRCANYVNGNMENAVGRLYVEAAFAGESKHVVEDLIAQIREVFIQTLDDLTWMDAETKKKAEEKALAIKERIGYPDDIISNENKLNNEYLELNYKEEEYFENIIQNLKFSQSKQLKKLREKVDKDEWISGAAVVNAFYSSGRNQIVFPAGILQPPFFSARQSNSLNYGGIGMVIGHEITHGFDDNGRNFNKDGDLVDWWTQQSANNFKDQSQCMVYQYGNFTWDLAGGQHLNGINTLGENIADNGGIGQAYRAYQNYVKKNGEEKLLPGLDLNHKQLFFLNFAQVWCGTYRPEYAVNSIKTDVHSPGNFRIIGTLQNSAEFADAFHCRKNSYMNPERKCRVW
Express it in mM; write the number only.

Worked set:
{"compound": "COC(=O)[C@@H](O)[C@@H](Cc1ccccc1)NC(=O)CN.Cl [Compound 2, hydrochloride]", "target-of-assay": "enkephalinase (Rattus norvegicus)", "assay-endpoint": "IC50", "value": 0.3}
{"compound": "CC(C)C[C@H](N)C(=O)N[C@H](Cc1ccccc1)[C@H](O)C(=O)O [Compound 8]", "target-of-assay": "enkephalinase (Rattus norvegicus)", "assay-endpoint": "IC50", "value": 2.56}
{"compound": "C[C@@H](N)C(=O)N[C@H](Cc1ccccc1)[C@H](O)C(=O)O [Compound 14]", "target-of-assay": "enkephalinase (Rattus norvegicus)", "assay-endpoint": "IC50", "value": 2.14}
{"compound": "NCC[C@H](O)C(=O)N[C@H](Cc1ccccc1)[C@H](O)C(=O)O [Compound 11]", "target-of-assay": "enkephalinase (Rattus norvegicus)", "assay-endpoint": "IC50", "value": 1.28}
{"compound": "N[C@H](Cc1ccccc1)C(=O)N[C@H](Cc1ccccc1)[C@H](O)C(=O)O [Compound 10]", "target-of-assay": "enkephalinase (Rattus norvegicus)", "assay-endpoint": "IC50", "value": 0.74}

Form: Entry = NCC(=O)N[C@H](Cc1ccccc1)[C@H](O)C(=O)O [Compound 1] | System = enkephalinase (Rattus norvegicus) | IC50 = ____
2.78

Query CC(C)C[C@H](NC(=O)[C@@H](O)[C@H](N)Cc1ccccc1)C(=O)O [Bestatin, reference compound] next
0.59

What about N[C@H](Cc1ccccc1)C(=O)N[C@H](Cc1ccc(O)cc1)[C@H](O)C(=O)O [Compound 17] ?
0.13

Try this compound too: CC(=O)NCC(=O)NCC(=O)N[C@H](Cc1ccccc1)[C@H](O)C(=O)O [Compound 6]
2.45
